Test system: MCF7
Assay notes: MTT cell viability assay
Assay type: cell-based, Human
Assay context: 24 h, mean ± SD
List of IC75 MCF7 values.
Only the number, expressed in µM, is required.

Please review the entries below; each comes with its answer.
> print(dat)
                           substance.smiles  assay.metric  unit.of.measurement  observed.result
1  COc1cc(-c2cn(-c3ccc(C(C)(C)C)cc3)nn2)[nH]c1/C=N/CCO.Cl     IC75 MCF7                   µM            34.69
2  COc1cc(-c2cn(-c3ccc(Cl)cc3)nn2)[nH]c1/C=N/C1CCCCC1.Cl     IC75 MCF7                   µM            14.53
3  COc1cc(-c2cn(-c3ccc(C(C)(C)C)cc3)nn2)[nH]c1/C=N/C1CCCC1.Cl     IC75 MCF7                   µM            20.49

Next compound, IC75 MCF7 to be filled in.
Prompt line: Test system MCF7; read-out IC75 MCF7; what value for COc1cc(-c2cn(-c3ccc(C(C)(C)C)cc3)nn2)[nH]c1/C=N/C12CC3CC(CC(C3)C1)C2.Cl ?
Response line: 7.91

----------
Assay notes: Solubility in DMSO-d6 when preparing NMR solutions
Type: physicochemical
Assay context: DMSO-d6, 25 °C, organic solvent or mixture
Assay metric: solubility

Prompt line: So what does the record say about solubility for COc1cc(-c2cn(-c3ccc(C(C)(C)C)cc3)nn2)[nH]c1/C=N/C12CC3CC(CC(C3)C1)C2.Cl [Compound 1] ?
Response line: < 50 mM

----------
Test system: HeLa
Assay notes: MTT cell viability assay
Assay type: cell-based, Human
Assay context: 24 h, mean ± SD
Assay metric: IC25 HeLa (µM)
Entry rule: numbers only, all in µM.

> print(dat)
                                   compound  unit.of.measurement  observed.result
1  COc1cc(-c2cn(-c3ccc(C(C)(C)C)cc3)nn2)[nH]c1/C=N/CCO.Cl [Compound 3]                   µM            11.98
2  COc1cc(-c2cn(CCO)nn2)[nH]c1/C=N/C12CC3CC(CC(C3)C1)C2.Cl [Compound 5]                   µM            78.14
3  COc1cc(-c2cn(-c3ccc(C(C)(C)C)cc3)nn2)[nH]c1/C=N/C12CC3CC(CC(C3)C1)C2.Cl [Compound 1]                   µM             2.85
4  COc1cc(-c2cn(-c3ccc(C(C)(C)C)cc3)nn2)[nH]c1/C=N/C1CCCC1.Cl [Compound 2]                   µM            11.34

Lab note: next compound to report on.
Prompt line: Please give the measured IC25 HeLa for this compound: COc1cc(-c2cn(-c3ccc(Cl)cc3)nn2)[nH]c1/C=N/C1CCCCC1.Cl [Compound 6]
Response line: 6.09

----------
Below is a list of entries, each paired with its recorded IC25 MCF7 value.
Test system: MCF7
Assay notes: MTT cell viability assay
Format: cell-based, Human
Assay context: 24 h, mean ± SD

Recorded results for 4 molecules are shown here.
> print(dat)
                           substance.smiles  assay.metric  observed.result
1  COc1cc(-c2cn(-c3ccc(C(C)(C)C)cc3)nn2)[nH]c1/C=N/C12CC3CC(CC(C3)C1)C2.Cl     IC25 MCF7   4.00 ± 1.22 µM
2  COc1cc(-c2cn(-c3ccc(C(C)(C)C)cc3)nn2)[nH]c1/C=N/C1CCCC1.Cl     IC25 MCF7   4.04 ± 1.37 µM
3  COc1cc(-c2cn(CCO)nn2)[nH]c1/C=N/C12CC3CC(CC(C3)C1)C2.Cl     IC25 MCF7          >100 µM
4  COc1cc(-c2cn(-c3ccc(Cl)cc3)nn2)[nH]c1/C=N/C1CCCCC1.Cl     IC25 MCF7   9.05 ± 1.13 µM

Prompt line: Consider the molecule COc1cc(-c2cn(-c3ccc(C(C)(C)C)cc3)nn2)[nH]c1/C=N/CCO.Cl and give its measured IC25 MCF7.
Response line: 7.22 ± 0.85 µM

Prompt line: Would you mind doing COc1cc(-c2cn(CCO)nn2)[nH]c1/C=N/CCO.Cl as well?
Response line: >100 µM

These data points were gathered from paper PMC10543179.
